// provenance: ChEMBL document CHEMBL3779855

Assay: Selectivity index, ratio of IC50 for human MRC5 cells to IC50 for nifurtimox-sensitive amastigote stage of Trypanosoma cruzi tulahuen CL2 infected in human MRC5 cells
Format: toxicity, cell-based
Settings: read-out: Ratio IC50

{"molecule": "O=C(O[C@@H](Cn1ccnc1)c1ccc(F)cc1)c1ccc(-c2ccccc2)cc1", "relationalOperator": ">", "selectivity ratio": 35.6}
{"molecule": "CCS(=O)(=O)N1CCN(c2ccc(NC(=O)OC(Cn3ccnc3)c3ccc(F)cc3)cc2)CC1 (racemic)", "relationalOperator": ">", "selectivity ratio": 1600}
{"molecule": "O=C(O[C@H](Cn1ccnc1)c1ccc(Cl)cc1)N1CCN(c2ccc([N+](=O)[O-])cc2)CC1", "relationalOperator": "=", "selectivity ratio": 6.4}
{"molecule": "O=C(OC(Cn1ccnc1)c1ccc(Cl)cc1)c1ccc(-c2ccccc2)cc1 (racemic)", "relationalOperator": "=", "selectivity ratio": 15}
{"molecule": "O=C(OC(Cn1ccnc1)c1ccc(-c2ccccc2)cc1)c1ccc(-c2ccccc2)cc1 (racemic)", "relationalOperator": "=", "selectivity ratio": 3.2}
{"molecule": "O=C(OC(Cn1ccnc1)c1ccc(Cl)cc1)N1CCN(c2ccc([N+](=O)[O-])cc2)CC1 (racemic)", "relationalOperator": "=", "selectivity ratio": 9.4}
{"molecule": "O=C(O[C@@H](Cn1ccnc1)c1ccc(F)cc1)N1CCN(c2ccc([N+](=O)[O-])cc2)CC1", "relationalOperator": "=", "selectivity ratio": 7}
{"molecule": "O=C(O[C@@H](Cn1ccnc1)c1ccc(Cl)cc1)c1ccc(-c2ccccc2)cc1", "relationalOperator": "=", "selectivity ratio": 39}
{"molecule": "O=C(OC(Cn1ccnc1)c1ccc(Cl)cc1)N1CCN(C(=O)c2ccco2)CC1 (racemic)", "relationalOperator": ">", "selectivity ratio": 10.9}
{"molecule": "O=C(OC(Cn1ccnc1)c1ccc(F)cc1)N1CCN(c2ccc([N+](=O)[O-])cc2)CC1 (racemic)", "relationalOperator": "=", "selectivity ratio": 9.2}
{"molecule": "O=C(O[C@H](Cn1ccnc1)c1ccc(Cl)cc1)c1ccc(-c2ccccc2)cc1", "relationalOperator": "=", "selectivity ratio": 14.6}
{"molecule": "O=C(Nc1ccc(N2CCN(C(=O)c3ccco3)CC2)cc1)OC(Cn1ccnc1)c1ccc(F)cc1 (racemic)", "relationalOperator": "=", "selectivity ratio": 33.4}
{"molecule": "O=C(O[C@@H](Cn1ccnc1)c1ccc(Cl)cc1)N1CCN(c2ccc([N+](=O)[O-])cc2)CC1", "relationalOperator": "=", "selectivity ratio": 8.7}
{"molecule": "O=C(O[C@H](Cn1ccnc1)c1ccc(F)cc1)N1CCN(c2ccc([N+](=O)[O-])cc2)CC1", "relationalOperator": "=", "selectivity ratio": 1.5}
{"molecule": "O=C(O[C@H](Cn1ccnc1)c1ccc(F)cc1)c1ccc(-c2ccccc2)cc1", "relationalOperator": "=", "selectivity ratio": 16.3}
{"molecule": "O=C(Nc1ccc(N2CCN(C(=O)c3ccco3)CC2)cc1)O[C@H](Cn1ccnc1)c1ccc(F)cc1", "relationalOperator": "=", "selectivity ratio": 288}
{"molecule": "O=C(Nc1ccc(N2CCN(C(=O)c3ccco3)CC2)cc1)O[C@@H](Cn1ccnc1)c1ccc(F)cc1", "relationalOperator": "=", "selectivity ratio": 15.4}
{"molecule": "O=C(OC(Cn1ccnc1)c1ccc(F)cc1)c1ccc(-c2ccccc2)cc1 (racemic)", "relationalOperator": "=", "selectivity ratio": 10.9}
